Examples of molecules with documented IC50 follow.
target: UniProt:O14727; format: functional
Sequence (O14727 whole entry): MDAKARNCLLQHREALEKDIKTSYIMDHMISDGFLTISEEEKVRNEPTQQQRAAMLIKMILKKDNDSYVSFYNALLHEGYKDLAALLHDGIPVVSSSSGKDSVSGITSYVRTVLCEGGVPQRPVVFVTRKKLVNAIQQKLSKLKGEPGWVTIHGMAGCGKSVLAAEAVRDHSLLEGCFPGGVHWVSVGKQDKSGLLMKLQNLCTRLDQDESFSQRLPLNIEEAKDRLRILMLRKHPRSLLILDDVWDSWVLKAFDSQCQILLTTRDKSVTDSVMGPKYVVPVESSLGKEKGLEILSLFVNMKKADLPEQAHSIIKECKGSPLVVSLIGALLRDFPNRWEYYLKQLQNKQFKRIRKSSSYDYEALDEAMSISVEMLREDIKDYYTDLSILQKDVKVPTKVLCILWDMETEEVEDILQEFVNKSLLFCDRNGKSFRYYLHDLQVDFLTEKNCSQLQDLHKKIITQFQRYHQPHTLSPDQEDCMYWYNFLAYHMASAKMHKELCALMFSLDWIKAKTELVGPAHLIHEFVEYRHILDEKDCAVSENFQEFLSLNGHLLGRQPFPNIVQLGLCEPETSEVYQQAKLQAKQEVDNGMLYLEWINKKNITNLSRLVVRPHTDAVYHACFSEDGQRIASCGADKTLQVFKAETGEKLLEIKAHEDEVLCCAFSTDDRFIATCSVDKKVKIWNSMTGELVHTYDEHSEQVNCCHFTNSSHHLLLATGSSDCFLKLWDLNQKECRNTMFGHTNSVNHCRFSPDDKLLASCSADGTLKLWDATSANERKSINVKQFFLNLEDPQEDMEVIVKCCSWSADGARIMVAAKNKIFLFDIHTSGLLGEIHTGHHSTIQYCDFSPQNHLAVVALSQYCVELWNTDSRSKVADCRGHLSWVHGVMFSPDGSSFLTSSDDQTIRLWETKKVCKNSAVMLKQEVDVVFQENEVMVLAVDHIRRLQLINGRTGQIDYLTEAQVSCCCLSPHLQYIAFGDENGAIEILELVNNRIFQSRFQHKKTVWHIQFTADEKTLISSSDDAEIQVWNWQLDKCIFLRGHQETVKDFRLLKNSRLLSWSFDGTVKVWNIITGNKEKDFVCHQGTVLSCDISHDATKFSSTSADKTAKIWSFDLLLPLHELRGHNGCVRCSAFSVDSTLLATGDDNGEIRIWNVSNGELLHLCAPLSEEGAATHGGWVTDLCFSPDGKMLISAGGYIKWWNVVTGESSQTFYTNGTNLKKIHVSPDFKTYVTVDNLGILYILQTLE
Calls of active or inactive are those of the source.
metric name: IC50

molecule	metric name	assay result
COc1ccc(Nc2ccc3c(c2)=NC2(CCCCC2)[N+]=3[O-])cc1	IC50	12.2 µM (active)
CC(C)(C)CC(C)(C)c1ccc(OCCOCC[N+](C)(C)Cc2ccccc2)cc1 [BENZETHONIUM CHLORIDE]	IC50	23.5 µM (active)
Clc1ccc(-c2cn3nc4c(nc3n2)CCCC4)cc1	IC50	17.5 µM (active)
COc1ccccc1NC1=C(N2CCCCC2)C(=O)c2ccccc2C1=O	IC50	3.32 µM (active)
N#Cc1c(N2CCCC(O)C2)nc(N)c2c(N)nc3c(c12)CC(=O)N3C12CC3CC(CC(C3)C1)C2 (stereo unspecified)	IC50	73 µM (active)
C#CCOCCOCCOCCNc1nc(N2CCN(C(=O)CCCCCCCCCCNC(=O)[C@@H](CCC(=O)O)n3cc(CCCCCN)nn3)CC2)nc(N2CCN(C(=O)CCCCCCCCCCNC(=O)[C@H](CCCCN)n3cc(C[C@@H](C)CC)nn3)CC2)n1	IC50	27.2 µM (active)

###

Recorded CC50 by entry
experiment: microbe, parasite or virus in culture; assay type: functional; conditions: Mycobacterium tuberculosis
The source made the active and inactive calls.
metric name: CC50

>>> print(df.to_string())
                                   compound  metric_name      assay_result
0  COC(=O)c1cccc(C#CC(NP(=O)(c2ccccc2)c2ccccc2)c2ccccc2)c1 (centres undefined)         CC50  > 40 µM (active)
1  CCc1c(C)sc2nc3c(C(=O)N4CCOCC4)cc(C(=O)c4cc(F)ccc4O)cn3c(=O)c12         CC50  > 40 µM (active)
2  CCn1nc(NC(=O)c2ccncc2)c2cc3cc(C)ccc3nc21         CC50  > 40 µM (active)
3  Cc1cc(=O)oc2cc(Oc3ccc([N+](=O)[O-])cc3C(F)(F)F)ccc12         CC50  > 40 µM (active)

###

Entries annotated with measured AC50
biological target: UniProt:P08684
Sequence (P08684 whole entry): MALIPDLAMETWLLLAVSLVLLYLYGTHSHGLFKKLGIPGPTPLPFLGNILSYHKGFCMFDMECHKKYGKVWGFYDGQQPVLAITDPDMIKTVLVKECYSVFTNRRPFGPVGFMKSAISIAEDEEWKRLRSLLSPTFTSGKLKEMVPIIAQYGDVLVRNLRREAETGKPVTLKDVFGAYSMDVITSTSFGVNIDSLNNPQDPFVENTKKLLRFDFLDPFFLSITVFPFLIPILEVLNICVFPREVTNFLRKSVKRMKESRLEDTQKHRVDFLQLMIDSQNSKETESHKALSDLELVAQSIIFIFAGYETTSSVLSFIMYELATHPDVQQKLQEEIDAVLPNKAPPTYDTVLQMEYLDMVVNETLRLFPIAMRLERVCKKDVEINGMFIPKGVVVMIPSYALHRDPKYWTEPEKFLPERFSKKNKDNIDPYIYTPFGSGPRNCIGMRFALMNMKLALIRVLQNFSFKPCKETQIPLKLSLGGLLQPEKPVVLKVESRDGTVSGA
metric name: AC50

>>> df
                                    molecule     test_system             assay_result
 0  O=C1OCCC1Sc1nnc(-c2ccc(O)cc2)o1 (stereo unspecified)  UniProt:P08684   7.08 µM (inconclusive)
 1  CCCN(CCC)CCCNC(=O)C[S+]([O-])Cc1nc(-c2ccc(OC)c(OC)c2)oc1C (stereo unspecified)  UniProt:P08684   7.94 µM (inconclusive)
 2        O=C(NCc1cccnc1)c1sc2cc(Cl)ccc2c1Cl  UniProt:P08684  0.891 µM (inconclusive)
 3  O=C1c2ccccc2C2=Nc3ccccc3SC(c3ccccc3F)C12 (stereo unspecified)  UniProt:P08684  0.355 µM (inconclusive)
 4  COc1cc(OC)cc(C(=O)Nn2cc(C(=O)N3CCN(C)CC3)c3ccccc3c2=O)c1  UniProt:P08684   28.2 µM (inconclusive)
 5  COCCCNC(=O)C1CC(=O)N(Cc2ccc(OC)cc2)C1 (stereo unspecified)  UniProt:P08684     20 µM (inconclusive)
 6  CCCCn1nc2cc(C(=O)NCCCCc3ccccc3)ccc2c1OCC  UniProt:P08684   6.31 µM (inconclusive)
 7        N#Cc1ccc(CN2CC[C@@]3(CCCNC3)C2)cc1  UniProt:P08684   31.6 µM (inconclusive)
 8     COc1ccc(CCNC[C@H](O)c2ccc(O)cc2)cc1OC  UniProt:P08684   25.1 µM (inconclusive)
 9              CC(=O)NCCc1c[nH]c2ccc(O)cc12  UniProt:P08684   7.94 µM (inconclusive)
10                 CC(=O)Nc1ccc(N2CCCCC2)cc1  UniProt:P08684  0.251 µM (inconclusive)

###

system: P388; experiment: cells; format: functional; conditions: Mus musculus;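 note: compound exposure lasted 48 hours before growth was measured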
Calls of active or inactive are those of the source.
Labels: active, inactive

In [3]: df
Out[3]:
                                   compound       cat
0                Cc1nc2ccccc2c(=O)n1CC(=O)O  inactive
1  C=C1CC(OC)(C(OC)C(=O)N[C@H]2OCO[C@H]3C2O[C@H](C[C@@H](COC)OC)C(C)(C)C3OC)O[C@H](C)[C@@H]1C (some centres undefined)    active
2  CCc1c(CNc2ccc(C(=O)NC(CC(=O)O)C(=O)O)cc2)ccc2nc(N)nc(N)c12 (centres undefined)    active
3  CNC(=O)c1cccc2c(Nc3ccc(NS(C)(=O)=O)cc3OC)c3cccc(C)c3nc12    active

###

target: Corticotropin-releasing factor receptor 2/Corticotropin-releasing factor-binding protein (Homo sapiens, UniProt P24387+Q13324); experiment: Dose Response confirmation of uHTS hits for small molecule antagonists of the CRF-binding protein and CRF-R2 receptor complex.; type: functional; settings: read-out: IC50_Mean
Sequence (Q13324 whole entry): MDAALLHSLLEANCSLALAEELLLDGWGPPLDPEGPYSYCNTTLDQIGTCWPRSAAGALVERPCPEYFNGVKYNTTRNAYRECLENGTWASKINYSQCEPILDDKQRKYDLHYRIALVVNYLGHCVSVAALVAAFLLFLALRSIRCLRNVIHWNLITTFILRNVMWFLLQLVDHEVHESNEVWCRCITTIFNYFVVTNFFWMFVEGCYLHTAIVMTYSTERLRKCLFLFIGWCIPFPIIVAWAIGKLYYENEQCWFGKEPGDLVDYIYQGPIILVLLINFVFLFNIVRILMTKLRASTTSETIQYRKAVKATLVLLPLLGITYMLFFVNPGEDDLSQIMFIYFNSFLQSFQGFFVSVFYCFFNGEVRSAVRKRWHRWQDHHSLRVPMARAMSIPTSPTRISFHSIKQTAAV
Sequence (P24387 whole entry): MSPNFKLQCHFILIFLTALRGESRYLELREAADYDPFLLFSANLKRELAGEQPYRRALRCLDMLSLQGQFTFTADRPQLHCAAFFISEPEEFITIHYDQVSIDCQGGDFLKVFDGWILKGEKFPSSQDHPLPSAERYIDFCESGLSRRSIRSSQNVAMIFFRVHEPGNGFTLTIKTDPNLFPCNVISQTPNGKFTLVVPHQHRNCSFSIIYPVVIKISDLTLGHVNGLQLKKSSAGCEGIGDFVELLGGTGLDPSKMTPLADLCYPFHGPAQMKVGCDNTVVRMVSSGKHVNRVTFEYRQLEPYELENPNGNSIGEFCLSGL
Calls of active or inactive are those of the source.
Outcomes: active, inactive

>>> print(df.to_string())
                                    molecule       cat
 0  Cc1nn(-c2ccccc2)c(C)c1NC(=O)COC(=O)c1ccccc1OC(F)F  inactive
 1                     Cc1ccccc1[N+](=O)[O-]  inactive
 2  CC1CCCCC1NC(=O)CCCCCn1c(=S)[nH]c2ccsc2c1=O (configuration not stated)    active
 3  CN(C)CCNC(=O)C(=O)c1c(-c2ccccc2)cc2ccccn12  inactive
 4                 CCOc1ccc(C(=O)c2cccs2)cc1  inactive
 5            CCOc1ccccc1Nc1ccnc2cc(Cl)ccc12  inactive
 6  COc1cc(C(=O)NCc2ccccc2Cl)ccc1OCC(=O)N1CCOCC1  inactive
 7  O=C1CC(c2ccc(Cl)cc2)SC(N(c2ccccc2)c2ccccc2)=N1 (configuration not stated)    active
 8            COc1ccccc1-c1cc(C(=O)NN)[nH]n1  inactive
 9   CC(C)Cc1csc(NC(=O)c2ccc(Cl)cc2)c1C(=O)O    active
10  Cc1nn(-c2cc(C(F)(F)F)ccc2Cl)c2nc(C(Cl)(Cl)Cl)nc(O)c12    active
11     Nc1nc(CN2CCc3ccccc3C2)nc(Nc2ccccc2)n1  inactive

###

target: Sentrin-specific protease 1 (Homo sapiens, UniProt Q9P0U3); assay: SENP1 catalytic domain blockers, concentration series – biochemical, kinetic FRET, dose response (AID 651697); type: functional; settings: read-out: IC50_Mean
Sequence (Q9P0U3 whole entry, the tested form may be a part): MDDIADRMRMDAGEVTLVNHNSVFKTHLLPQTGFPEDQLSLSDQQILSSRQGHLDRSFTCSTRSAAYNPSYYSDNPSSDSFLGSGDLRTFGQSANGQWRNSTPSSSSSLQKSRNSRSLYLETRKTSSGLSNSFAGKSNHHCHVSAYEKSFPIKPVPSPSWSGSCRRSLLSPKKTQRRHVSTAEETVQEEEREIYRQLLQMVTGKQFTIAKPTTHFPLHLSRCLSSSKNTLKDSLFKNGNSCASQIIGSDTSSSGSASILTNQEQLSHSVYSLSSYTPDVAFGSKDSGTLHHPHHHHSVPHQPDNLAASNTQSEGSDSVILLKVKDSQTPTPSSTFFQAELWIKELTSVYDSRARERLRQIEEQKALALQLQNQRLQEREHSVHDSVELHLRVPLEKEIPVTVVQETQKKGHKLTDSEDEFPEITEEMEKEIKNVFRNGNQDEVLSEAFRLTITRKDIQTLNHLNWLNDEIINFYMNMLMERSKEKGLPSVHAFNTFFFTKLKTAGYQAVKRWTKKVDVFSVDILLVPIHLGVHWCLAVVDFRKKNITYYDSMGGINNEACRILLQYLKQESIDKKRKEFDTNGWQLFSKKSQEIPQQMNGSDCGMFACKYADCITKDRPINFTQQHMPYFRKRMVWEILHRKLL
Active and inactive are the calls of the source.
metric name: IC50

>>> print(df.to_string())
                                        mol        assay_result
0  COc1ccc(Nc2nnc(SCc3cc(=O)n4ccsc4n3)s2)cc1  26.2 µM (inactive)
1     Cc1sc(-c2ccccn2)nc1OC(=O)c1ccc(F)cc1F    3.57 µM (active)
2  O=C1C=C(c2cccc(Cl)c2O)C[C@@H](c2ccc(F)cc2)C1    2.61 µM (active)
3  COc1ccccc1-n1cc(C(=O)c2cc(Cl)ccc2O)cc(C#N)c1=O  40.9 µM (inactive)

###

Below, each of the molecules is paired with its reported AC50 value.
target: Paired box protein Pax-8 (Homo sapiens, UniProt Q06710); assay: PAX8 transcriptional activity inhibition in RMG-I – RMG-I cells, luciferase, cherry-pick, dose response (AID 687027); assay type: functional, cell-based;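 note: luciferase reporter driven by Pax8 target thyroperoxidase promoter measured by SteadyGlo luminescence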
Sequence (Q06710 whole entry): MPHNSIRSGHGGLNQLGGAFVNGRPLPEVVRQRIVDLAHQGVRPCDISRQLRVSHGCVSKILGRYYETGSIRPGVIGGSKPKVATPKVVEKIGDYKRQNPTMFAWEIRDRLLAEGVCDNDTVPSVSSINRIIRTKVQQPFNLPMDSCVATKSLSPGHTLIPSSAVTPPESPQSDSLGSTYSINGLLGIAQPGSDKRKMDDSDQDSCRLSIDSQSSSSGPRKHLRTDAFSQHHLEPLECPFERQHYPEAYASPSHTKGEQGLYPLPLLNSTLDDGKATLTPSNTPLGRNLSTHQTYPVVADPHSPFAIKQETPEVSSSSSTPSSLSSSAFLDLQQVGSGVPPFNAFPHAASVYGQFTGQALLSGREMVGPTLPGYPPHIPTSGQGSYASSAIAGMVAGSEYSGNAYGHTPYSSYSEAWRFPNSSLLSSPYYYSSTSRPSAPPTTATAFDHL
Activity calls are given as the source filed them.
metric name: AC50

>>> print(df.to_string())
                                   molecule  metric_name        assay_result
0  C[C@H](CO)N1C[C@H](C)[C@@H](CN(C)C(=O)c2ccc3c(c2)OCO3)Oc2cc(C#Cc3ccccc3F)ccc2S1(=O)=O         AC50    6.89 µM (active)
1  N#C[C@@H]1[C@@H](c2ccc(C#Cc3ccccc3F)cc2)[C@H](CO)N1C(=O)C1CCCCC1         AC50    9.74 µM (active)
2  C[C@H]1CCC/C=C/[C@@H]2C[C@H](O)C[C@H]2[C@H](O)/C=C/C(=O)O1 [BREFELDIN A]         AC50  < 0.26 µM (active)
3  CC(C)(C)[S+]([O-])N1Cc2cc(C(=O)NCCCN3CCOCC3)nc(-c3cccc(C#CCC4CCCC4)c3)c2[C@@H]1CCO (some centres undefined)         AC50      24 µM (active)

###

Quick reference: AC50 of the listed items.
target: Cytochrome P450 1A2 (Homo sapiens);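 note: PubChem cytochrome P450 panel assay, CYP1A2 panel member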
Sequence (P05177 whole entry): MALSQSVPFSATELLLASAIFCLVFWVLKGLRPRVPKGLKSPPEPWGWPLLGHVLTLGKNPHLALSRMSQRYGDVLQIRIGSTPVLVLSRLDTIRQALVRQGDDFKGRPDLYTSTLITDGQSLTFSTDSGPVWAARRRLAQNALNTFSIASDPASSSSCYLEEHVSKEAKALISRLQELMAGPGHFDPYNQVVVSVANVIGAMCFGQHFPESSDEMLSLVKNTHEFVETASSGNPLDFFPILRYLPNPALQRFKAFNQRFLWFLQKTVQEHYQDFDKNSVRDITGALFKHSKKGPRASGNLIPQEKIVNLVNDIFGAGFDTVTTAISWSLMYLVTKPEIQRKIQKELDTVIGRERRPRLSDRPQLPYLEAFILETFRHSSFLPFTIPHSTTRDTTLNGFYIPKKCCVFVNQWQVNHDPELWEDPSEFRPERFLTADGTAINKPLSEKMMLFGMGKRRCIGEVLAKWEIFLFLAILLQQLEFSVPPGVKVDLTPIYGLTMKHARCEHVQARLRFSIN
metric name: AC50

>>> print(df.to_string())
                                   compound                         test_system  metric_name             assay_result
0              CC(=O)NCCc1c[nH]c2ccc(O)cc12  Cytochrome P450 1A2 (Homo sapiens)         AC50   15.8 µM (inconclusive)
1  Fc1ccc(N2CCN(c3ccc4c(C(F)(F)F)cc(C(F)(F)F)nc4n3)CC2)cc1  Cytochrome P450 1A2 (Homo sapiens)         AC50   5.01 µM (inconclusive)
2  O=C(O)c1ccccc1C(=O)Nc1cc2c(cc1Br)-c1ccccc1C2=O  Cytochrome P450 1A2 (Homo sapiens)         AC50  0.631 µM (inconclusive)
3  COc1ccc(-c2nc3cnc(N4CCN(C)CC4)nc3n(C)c2=O)cc1  Cytochrome P450 1A2 (Homo sapiens)         AC50   25.1 µM (inconclusive)
4  Cc1nn(Cc2c(F)c(F)c(F)c(F)c2F)c(C)c1NC(=O)c1cccc(COc2ccccc2Cl)c1  Cytochrome P450 1A2 (Homo sapiens)         AC50   17.8 µM (inconclusive)
5  COCCNC(=O)CSc1nc2ccc(N3CCOCC3)cc2c(=O)n1Cc1ccc(OC)cc1  Cytochrome P450 1A2 (Homo sapiens)         AC50   15.8 µM (inconclusive)
6  CC1CCCC(C)N1C(=O)c1ccccc1Nc1ccc(SC(F)F)cc1 (stereo not given)  Cytochrome P450 1A2 (Homo sapiens)         AC50   17.8 µM (inconclusive)
7  O=C(CSCc1cccc(Cl)c1)N/N=C/c1ccc(OCC(=O)N2CCCCC2)cc1  Cytochrome P450 1A2 (Homo sapiens)         AC50     20 µM (inconclusive)
8  CC1(C)C(=O)C(c2ccccc2)=C2CN3C(=O)N(CCc4ccccc4)C(=O)C3(Cc3ccccc3)C=C21 (stereo not given)  Cytochrome P450 1A2 (Homo sapiens)         AC50   6.31 µM (inconclusive)
9  O=C(NCc1ccco1)c1ccccc1NS(=O)(=O)c1ccc(Br)s1  Cytochrome P450 1A2 (Homo sapiens)         AC50   14.1 µM (inconclusive)

Sourced from ChEMBL document CHEMBL1201862
